Target: Lysine-specific demethylase 4A (Homo sapiens) (UniProt O75164)
Sequence (O75164 whole entry, looked up): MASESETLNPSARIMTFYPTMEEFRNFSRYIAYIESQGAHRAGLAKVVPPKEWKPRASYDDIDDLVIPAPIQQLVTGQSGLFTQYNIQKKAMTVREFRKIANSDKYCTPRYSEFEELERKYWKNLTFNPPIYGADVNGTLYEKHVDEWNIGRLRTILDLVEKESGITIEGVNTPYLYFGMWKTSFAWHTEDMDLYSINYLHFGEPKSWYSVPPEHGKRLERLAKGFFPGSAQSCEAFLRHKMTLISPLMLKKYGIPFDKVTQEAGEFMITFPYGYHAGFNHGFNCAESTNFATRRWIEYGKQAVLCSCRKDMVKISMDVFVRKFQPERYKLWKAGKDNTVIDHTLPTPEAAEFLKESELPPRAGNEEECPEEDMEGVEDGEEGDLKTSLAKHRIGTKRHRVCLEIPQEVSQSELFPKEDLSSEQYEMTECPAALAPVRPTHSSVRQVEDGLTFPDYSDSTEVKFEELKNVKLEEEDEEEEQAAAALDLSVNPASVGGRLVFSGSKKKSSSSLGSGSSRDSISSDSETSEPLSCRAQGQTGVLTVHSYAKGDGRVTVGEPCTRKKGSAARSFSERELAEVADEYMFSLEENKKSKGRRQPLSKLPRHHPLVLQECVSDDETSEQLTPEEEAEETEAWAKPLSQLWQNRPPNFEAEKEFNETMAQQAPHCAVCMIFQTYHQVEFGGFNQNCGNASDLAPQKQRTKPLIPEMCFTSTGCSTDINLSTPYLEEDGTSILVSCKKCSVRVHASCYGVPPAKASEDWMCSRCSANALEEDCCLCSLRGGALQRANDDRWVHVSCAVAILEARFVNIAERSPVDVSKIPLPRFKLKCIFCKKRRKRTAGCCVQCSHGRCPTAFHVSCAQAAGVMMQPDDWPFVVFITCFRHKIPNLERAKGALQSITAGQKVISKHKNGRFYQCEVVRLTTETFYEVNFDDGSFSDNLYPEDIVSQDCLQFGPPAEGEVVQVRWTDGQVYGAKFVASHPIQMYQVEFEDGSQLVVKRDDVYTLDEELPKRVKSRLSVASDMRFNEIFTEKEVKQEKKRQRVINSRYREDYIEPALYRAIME
Experiment: inhibition of JMJD2A H3K9me3 demethylation – biochemical, DELFIA europium, cherry-picked samples, selectivity assay for GASC-1 inhibitor project, dose response (AID 488840);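 further: europium signal reports the dimethyl H3K9 product detected by antibody so inhibitors lower it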
Settings: GST-JMJD2A(1-420) H3K9me3 demethylation; series mostly up to 6 µM
Among all 1,400 compounds or so, about 45 (3%) were called active. A selection follows. Measured potencies and affinities stand elsewhere.
ATTRIBUTE MEASURED: outcome

The following molecules have reported results that may help.
{"MOLECULE": "O=C(NCCCNCCCNC(=O)c1ccc(/C=N/O)nc1)c1ccc(/C=N/O)nc1", "ATTRIBUTE MEASURED": "outcome", "RESULT": "inactive"}
{"MOLECULE": "O=C(COC(=O)c1cccc(S(=O)(=O)NCc2ccccc2)c1)Nc1ccccc1OC(F)F", "ATTRIBUTE MEASURED": "outcome", "RESULT": "inactive"}
{"MOLECULE": "O=C(NCc1nnc(SCC(=O)N2CCCC2)o1)c1ccccc1F", "ATTRIBUTE MEASURED": "outcome", "RESULT": "inactive"}
{"MOLECULE": "CCn1c(CCn2ccnc2C)n[nH]c1=S", "ATTRIBUTE MEASURED": "outcome", "RESULT": "inactive"}
{"MOLECULE": "Cc1cccc(NC(=O)C2CCCN(S(=O)(=O)c3c(C)nn(C)c3C)C2)n1 (stereo not drawn)", "ATTRIBUTE MEASURED": "outcome", "RESULT": "inactive"}

Hey, can you go through the list below and give me outcome for every item?
1. Cc1cnc(NC(=O)c2ccc(-c3nc4ccccc4s3)o2)s1
2. COc1ccc(/C=N/NS(=O)(=O)c2ccc(NC(C)=O)cc2)cc1
3. CCN1CCC(=NNC(=O)c2ccc(C)c([N+](=O)[O-])c2)CC1
4. COc1ccc(-c2nnc(SC(C)C(=O)NCc3ccc4c(c3)OCO4)n2Cc2ccco2)cc1 (stereo not drawn)
5. Cc1ccc(S(=O)(=O)Nc2ccc3c(c2)C(=O)N([C@H](C)CO)C[C@H](C)[C@@H](CN(C)Cc2ccc(-c4ccccc4)cc2)O3)cc1
6. Cc1ccc(CNC(=O)[C@@H](NC(=O)Cc2ccccc2)C(C)C)cc1
7. Cc1ccc(CNC(=O)Cc2ccc(-c3ccccc3)cc2)cc1

Reply:
inactive
inactive
inactive
inactive
inactive
inactive
inactive

Hey, can you go through the list below and give me outcome for every item?
1. O=C(Nc1ccccc1)N(CCc1nc2ccccc2[nH]1)C1CCCC1
2. Cc1cccc(-c2noc(CCC(=O)NC3CCCC3)n2)c1
3. O=C(Nc1ccc(-c2nc3ncccc3o2)cc1)c1ccc(Br)o1
4. COc1cc2[nH]c(=O)n(CCCCCC(=O)NCCCN3CCCC3=O)c(=O)c2cc1OC
5. Cn1c(=O)c2c(nc(NC3CCCCC3)n2Cc2ccccc2)n(C)c1=O

Reply:
1: inactive; 2: inactive; 3: inactive; 4: inactive; 5: inactive

Hey, can you go through the list below and give me outcome for every item?
1. CCN(CC)C(=O)N1CCc2ccccc2C1CN1C(=O)c2ccccc2C1=O (stereo not drawn)
2. CCOc1ccc(CN2CCN(Cc3nc(C(C)C)cs3)CC2CCO)cc1 (stereo not drawn)

Reply:
1. inactive
2. inactive
